Target: hLAT1/4F2hc (Homo sapiens)
Construct: Invitrogen (host cells)
Assay: Concentration-dependent cellular uptake into HEK-hLAT1 cells (LC-MS/MS, Michaelis-Menten)
Type: cell-based
Conditions: HEK-hLAT1 cells; known LAT1 substrates; 2-400 μM, 10 min; n = 3
Procedure: The concentrations for the compounds were in the range of 2–400 μM. Otherwise, the experiment was carried out as described above and analyzed by liquid chromatography coupled with an electrospray ionization (ESI) triple quadrupole mass spectrometer (LC–MS–MS). […] The concentration-dependent uptake studies were performed by adding 2–400 μM of the tested compound in 250 μL of prewarmed HBSS buffer on the cell layer. […] After incubation, the cells were washed and lysed as described above. […]
property_measured: Vmax

{"columns": ["compound", "reported"],
 "data": [
  ["N[C@@H](Cc1ccc(O)c(O)c1)C(=O)O [L-DOPA, reference compound]", "15±7.6 nmol/min/mg of protein"],
  ["NCC1(CC(=O)O)CCCCC1 [Gabapentin, reference compound]", "18±9.9 nmol/min/mg of protein"],
  ["N[C@@H](Cc1c[nH]c2ccccc12)C(=O)O [Tryptophan, L-tryptophan, reference compound]", "12±19 nmol/min/mg of protein"]
]}

Next compound, Vmax to be filled in.
Recorded Vmax for N[C@@H](Cc1ccc(N(CCCl)CCCl)cc1)C(=O)O [Melphalan, reference compound] , please?
0.08±0.01 nmol/min/mg of protein

---

target: hLAT1/4F2hc (Homo sapiens, UniProt Q01650); construct: Invitrogen (host cells); assay: cis-inhibition of [14C]-L-leucine uptake in HEK-hLAT1 cells; format: cell-based
Sequence (Q01650 whole entry): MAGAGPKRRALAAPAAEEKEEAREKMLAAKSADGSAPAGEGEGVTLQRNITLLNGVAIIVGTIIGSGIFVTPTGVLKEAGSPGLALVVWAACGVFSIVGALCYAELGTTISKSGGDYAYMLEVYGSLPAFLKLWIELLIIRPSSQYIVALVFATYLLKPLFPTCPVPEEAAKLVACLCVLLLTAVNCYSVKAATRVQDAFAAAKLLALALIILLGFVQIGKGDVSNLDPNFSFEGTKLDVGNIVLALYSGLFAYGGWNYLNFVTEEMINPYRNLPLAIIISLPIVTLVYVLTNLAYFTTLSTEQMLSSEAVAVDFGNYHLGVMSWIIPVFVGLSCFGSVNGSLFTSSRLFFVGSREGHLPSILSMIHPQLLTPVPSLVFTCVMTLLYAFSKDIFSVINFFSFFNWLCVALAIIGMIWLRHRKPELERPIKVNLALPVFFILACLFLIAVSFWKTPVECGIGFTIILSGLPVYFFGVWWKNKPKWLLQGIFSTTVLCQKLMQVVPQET
Sequence (P08195 102-630 partner): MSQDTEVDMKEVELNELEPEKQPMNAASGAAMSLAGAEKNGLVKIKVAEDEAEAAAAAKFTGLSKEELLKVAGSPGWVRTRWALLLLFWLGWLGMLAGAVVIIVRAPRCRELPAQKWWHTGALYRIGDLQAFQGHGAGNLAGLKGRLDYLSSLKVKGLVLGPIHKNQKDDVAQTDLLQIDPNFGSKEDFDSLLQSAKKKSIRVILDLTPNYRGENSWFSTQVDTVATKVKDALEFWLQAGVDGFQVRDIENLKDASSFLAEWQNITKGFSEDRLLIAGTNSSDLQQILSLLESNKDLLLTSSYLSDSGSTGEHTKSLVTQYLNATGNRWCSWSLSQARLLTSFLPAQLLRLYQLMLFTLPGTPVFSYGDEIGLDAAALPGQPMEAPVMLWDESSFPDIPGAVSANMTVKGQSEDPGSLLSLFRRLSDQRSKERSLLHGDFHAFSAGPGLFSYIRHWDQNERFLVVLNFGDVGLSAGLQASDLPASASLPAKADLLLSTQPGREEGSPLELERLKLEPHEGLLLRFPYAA
property_measured: pIC50
The value called pIC50 is obtained by taking minus log10 of the concentration in mol/L.

Lab note: need pIC50 with hLAT1/4F2hc (Homo sapiens, UniProt Q01650) for entry N[C@@H](Cc1ccc(N(CCCl)CCCl)cc1)C(=O)O [Melphalan, reference compound] , please look it up.
5.18

---

Molecular target: hLAT1/4F2hc (Homo sapiens)
Construct: Invitrogen (host cells)
Assay: cis-inhibition of [14C]-L-leucine uptake in HEK-hLAT1 cells
Format: cell-based
Conditions: HEK-hLAT1 cells; 50 μM compound; compounds 1-12; read-out: [14C]-L-Leucine uptake inhibition % (50μM)
Protocol: In the following experiments, the MCF-7, HEK-hLAT1, and HEK-MOCK cells were cultured, seeded, and preincubated as described above. […] The cells were then lysed with 250 μL of 0.1 M sodium hydroxide, the lysate was mixed with 1.0 mL of Emulsifier safe cocktail (PerkinElmer, Waltham, MA, USA), and the radioactivity was measured with a liquid scintillation counter (MicroBeta^2 counter, PerkinElmer, Waltham, MA, USA). […]
property_measured: inhibition at 50 µM (%)
Give the value, in units of %, as a plain number.

Sample records with inhibition at 50 µM:
{"columns": ["compound", "unit", "inhibition at 50 µM"],
 "data": [
  ["N[C@@H](Cc1cccc(NC(=O)c2ccccc2O)c1)C(=O)O", "%", 8.1],
  ["CC(C(=O)Oc1cccc(C[C@H](N)C(=O)O)c1)c1cccc(C(=O)c2ccccc2)c1 (stereo partly shown)", "%", 24],
  ["CC(C(=O)Nc1cccc(C[C@H](N)C(=O)O)c1)c1ccc(-c2ccccc2)c(F)c1 (stereo partly shown)", "%", 26.4]
]}

Next compound, inhibition at 50 µM to be filled in.
Recorded inhibition at 50 µM for CC(C(=O)Nc1cccc(C[C@H](N)C(=O)O)c1)c1cccc(C(=O)c2ccccc2)c1 (stereo partly shown) , please?
48

Reference source: paper PMC9811466
